# System: Radical scavenging activity
# MEASUREMENT_DESCRIPTION: Antioxidant activity assessed as DPPH radical scavenging activity at 6 uM after 30 mins
# Type: functional
OUTCOME_MEASURE: Activity

{"MOLECULE": "CC(C)=CC(O)C/C(C)=C/CC/C(C)=C\\C(=O)C/C(C)=C/Cc1cc(O)cc(C)c1O (centres undefined)", "ASSAY_SYSTEM": "Radical scavenging activity", "Activity": "5.8%"}

Task: Need Activity of C/C(=C\C(=O)C/C(C)=C/Cc1cc(O)cc(C)c1O)CC/C=C(\C)Cc1cc(C)co1 , thanks.
Output: 8%

Task: Which Activity is reported for this molecule? Cc1c(C)c2c(c(C)c1O)CC[C@@](C)(CCC[C@H](C)CCC[C@H](C)CCCC(C)C)O2
Output: 8.2%

Task: If you can, please state the reported Activity value of C/C(=C/C(=O)C/C(C)=C/Cc1cc(O)cc(C)c1O)CC/C=C(\C)Cc1cc(C)co1 .
Output: 5.9%
